# target.entity: HDAC2 (Homo sapiens, UniProt Q92769)
# Sequence (Q92769 whole entry): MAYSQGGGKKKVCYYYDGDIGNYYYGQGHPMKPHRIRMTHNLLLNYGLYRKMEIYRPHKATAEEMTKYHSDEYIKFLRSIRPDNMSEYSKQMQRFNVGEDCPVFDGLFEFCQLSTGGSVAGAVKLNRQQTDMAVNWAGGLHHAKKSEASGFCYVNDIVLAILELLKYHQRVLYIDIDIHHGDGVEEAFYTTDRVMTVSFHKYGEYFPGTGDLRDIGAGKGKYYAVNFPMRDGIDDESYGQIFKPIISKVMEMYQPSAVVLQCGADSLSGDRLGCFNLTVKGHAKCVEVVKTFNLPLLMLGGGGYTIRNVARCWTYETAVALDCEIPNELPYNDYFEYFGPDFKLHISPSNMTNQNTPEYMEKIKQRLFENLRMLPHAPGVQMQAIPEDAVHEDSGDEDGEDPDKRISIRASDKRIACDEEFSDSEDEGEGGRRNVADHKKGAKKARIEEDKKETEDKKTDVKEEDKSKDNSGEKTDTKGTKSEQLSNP
measured.endpoint: IC50

Query: State its IC50 for this molecule: `Nc1nonc1-n1cc(C(=O)N/N=C/c2cc(Cl)cc(C(F)(F)F)c2)nn1`
Reply: > 100 µM

====

# target.entity: SIRT2 (Homo sapiens, UniProt Q8IXJ6)
# Sequence (Q8IXJ6 1-389): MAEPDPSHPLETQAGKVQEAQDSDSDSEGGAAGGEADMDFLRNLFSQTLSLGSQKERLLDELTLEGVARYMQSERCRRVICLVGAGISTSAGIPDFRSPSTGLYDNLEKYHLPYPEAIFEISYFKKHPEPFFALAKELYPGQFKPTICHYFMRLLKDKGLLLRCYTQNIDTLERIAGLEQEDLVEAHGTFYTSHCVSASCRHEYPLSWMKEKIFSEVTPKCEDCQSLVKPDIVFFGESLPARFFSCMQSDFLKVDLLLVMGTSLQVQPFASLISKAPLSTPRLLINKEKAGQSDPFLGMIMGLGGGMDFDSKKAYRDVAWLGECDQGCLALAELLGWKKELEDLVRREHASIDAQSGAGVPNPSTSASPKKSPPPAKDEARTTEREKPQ
measured.endpoint: IC50 (µM)
Please state the figure in µM; there is no need to write the unit.

Query: State its IC50 for this molecule: `Nc1nonc1-n1cc(C(=O)N/N=C/c2cc(Cl)cc(C(F)(F)F)c2)nn1`
Reply: 87.2

====

measured.endpoint: IC50

Query: Provide the reported IC50 (system: HDAC1 (Homo sapiens, UniProt Q13547)) for `Nc1nonc1-n1cc(C(=O)N/N=C/c2cc(Cl)cc(C(F)(F)F)c2)nn1`
Sequence (Q13547 whole entry): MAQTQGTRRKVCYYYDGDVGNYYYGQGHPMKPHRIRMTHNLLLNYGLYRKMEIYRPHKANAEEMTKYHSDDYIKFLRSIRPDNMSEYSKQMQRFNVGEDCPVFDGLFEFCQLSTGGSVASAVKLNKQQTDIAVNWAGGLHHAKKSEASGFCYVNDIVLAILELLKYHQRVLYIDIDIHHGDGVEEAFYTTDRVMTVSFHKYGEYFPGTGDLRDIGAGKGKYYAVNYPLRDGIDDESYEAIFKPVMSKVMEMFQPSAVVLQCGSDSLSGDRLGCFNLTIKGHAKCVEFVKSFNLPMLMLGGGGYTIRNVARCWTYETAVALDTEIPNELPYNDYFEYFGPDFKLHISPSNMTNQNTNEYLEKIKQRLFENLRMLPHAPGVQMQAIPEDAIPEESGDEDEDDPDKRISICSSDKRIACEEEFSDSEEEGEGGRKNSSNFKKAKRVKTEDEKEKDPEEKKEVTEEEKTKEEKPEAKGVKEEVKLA
Reply: > 100 µM

====

Protein target, amino acids: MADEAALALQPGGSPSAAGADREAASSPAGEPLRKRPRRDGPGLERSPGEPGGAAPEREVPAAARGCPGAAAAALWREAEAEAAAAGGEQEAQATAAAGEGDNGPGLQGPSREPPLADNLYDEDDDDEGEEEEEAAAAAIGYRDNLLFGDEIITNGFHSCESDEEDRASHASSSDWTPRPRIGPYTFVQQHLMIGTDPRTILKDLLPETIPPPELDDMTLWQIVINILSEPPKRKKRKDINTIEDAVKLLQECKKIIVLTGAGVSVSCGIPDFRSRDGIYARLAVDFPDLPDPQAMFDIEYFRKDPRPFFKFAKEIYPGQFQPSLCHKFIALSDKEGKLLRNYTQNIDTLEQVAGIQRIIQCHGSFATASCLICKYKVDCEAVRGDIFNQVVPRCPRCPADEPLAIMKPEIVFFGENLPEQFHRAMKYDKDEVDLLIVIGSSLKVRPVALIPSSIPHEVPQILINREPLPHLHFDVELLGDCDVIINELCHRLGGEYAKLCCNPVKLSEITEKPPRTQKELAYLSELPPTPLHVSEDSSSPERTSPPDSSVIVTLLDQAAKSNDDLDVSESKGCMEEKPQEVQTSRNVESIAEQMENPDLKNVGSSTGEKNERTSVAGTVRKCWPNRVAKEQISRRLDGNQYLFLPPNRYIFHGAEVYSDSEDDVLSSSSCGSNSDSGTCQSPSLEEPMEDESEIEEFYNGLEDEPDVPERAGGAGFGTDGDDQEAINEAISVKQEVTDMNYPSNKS
pIC50: −log10 of the molar value.
measured.endpoint: pIC50

Query: State its pIC50 for this molecule: `Nc1nonc1-n1cc(C(=O)N/N=C/c2cc(Cl)cc(C(F)(F)F)c2)nn1`
Reply: < 4.00

====

Target protein (sequence): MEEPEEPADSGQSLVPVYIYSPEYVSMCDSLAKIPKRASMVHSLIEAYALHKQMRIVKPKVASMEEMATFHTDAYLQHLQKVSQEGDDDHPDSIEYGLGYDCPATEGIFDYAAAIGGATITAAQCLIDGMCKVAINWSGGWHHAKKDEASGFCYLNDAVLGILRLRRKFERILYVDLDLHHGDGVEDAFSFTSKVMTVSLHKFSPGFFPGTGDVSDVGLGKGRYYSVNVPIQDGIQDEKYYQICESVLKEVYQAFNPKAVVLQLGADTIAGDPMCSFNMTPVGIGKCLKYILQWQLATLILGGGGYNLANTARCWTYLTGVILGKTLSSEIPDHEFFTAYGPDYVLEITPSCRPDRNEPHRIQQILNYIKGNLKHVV
measured.endpoint: IC50

Query: State its IC50 for this molecule: Nc1nonc1-n1cc(C(=O)N/N=C/c2cc(Cl)cc(C(F)(F)F)c2)nn1 [JYQ-42]
Reply: > 100 µM

====

pIC50: −log10 of the molar value.
measured.endpoint: pIC50

Query: Provide the reported pIC50 (system: HDAC5 (Homo sapiens, UniProt Q9UQL6)) for `Nc1nonc1-n1cc(C(=O)N/N=C/c2cc(Cl)cc(C(F)(F)F)c2)nn1`
Sequence (Q9UQL6 whole entry): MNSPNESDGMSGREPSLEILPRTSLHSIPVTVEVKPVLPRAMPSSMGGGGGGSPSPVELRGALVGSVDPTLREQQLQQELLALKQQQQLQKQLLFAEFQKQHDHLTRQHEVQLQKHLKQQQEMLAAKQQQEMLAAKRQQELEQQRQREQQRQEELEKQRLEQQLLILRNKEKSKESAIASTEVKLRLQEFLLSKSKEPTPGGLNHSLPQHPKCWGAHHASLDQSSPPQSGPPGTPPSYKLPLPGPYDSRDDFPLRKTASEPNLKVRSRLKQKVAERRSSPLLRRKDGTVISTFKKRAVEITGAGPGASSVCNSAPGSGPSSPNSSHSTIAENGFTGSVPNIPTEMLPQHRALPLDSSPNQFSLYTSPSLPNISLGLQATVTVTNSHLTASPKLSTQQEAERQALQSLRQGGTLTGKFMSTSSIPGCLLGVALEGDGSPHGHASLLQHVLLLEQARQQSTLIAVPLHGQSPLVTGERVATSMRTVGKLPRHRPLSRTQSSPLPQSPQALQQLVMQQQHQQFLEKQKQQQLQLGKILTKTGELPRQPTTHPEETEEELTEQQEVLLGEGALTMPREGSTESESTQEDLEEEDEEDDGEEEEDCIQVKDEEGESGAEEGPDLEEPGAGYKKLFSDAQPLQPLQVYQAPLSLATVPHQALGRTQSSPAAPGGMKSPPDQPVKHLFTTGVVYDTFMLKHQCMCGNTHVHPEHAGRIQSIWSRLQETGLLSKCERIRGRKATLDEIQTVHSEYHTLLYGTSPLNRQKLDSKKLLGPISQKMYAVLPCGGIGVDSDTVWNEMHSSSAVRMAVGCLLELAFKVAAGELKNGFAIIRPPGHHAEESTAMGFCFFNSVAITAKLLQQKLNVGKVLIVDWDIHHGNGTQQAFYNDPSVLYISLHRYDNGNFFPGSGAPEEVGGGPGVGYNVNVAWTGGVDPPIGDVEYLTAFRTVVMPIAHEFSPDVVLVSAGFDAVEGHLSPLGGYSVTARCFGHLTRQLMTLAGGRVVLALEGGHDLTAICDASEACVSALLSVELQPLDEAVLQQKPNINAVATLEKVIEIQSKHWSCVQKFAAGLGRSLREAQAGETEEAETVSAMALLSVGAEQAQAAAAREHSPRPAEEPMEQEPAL
Reply: < 4.00

====

# target.entity: HDAC10 (Homo sapiens, UniProt Q969S8)
# Sequence (Q969S8 1-669): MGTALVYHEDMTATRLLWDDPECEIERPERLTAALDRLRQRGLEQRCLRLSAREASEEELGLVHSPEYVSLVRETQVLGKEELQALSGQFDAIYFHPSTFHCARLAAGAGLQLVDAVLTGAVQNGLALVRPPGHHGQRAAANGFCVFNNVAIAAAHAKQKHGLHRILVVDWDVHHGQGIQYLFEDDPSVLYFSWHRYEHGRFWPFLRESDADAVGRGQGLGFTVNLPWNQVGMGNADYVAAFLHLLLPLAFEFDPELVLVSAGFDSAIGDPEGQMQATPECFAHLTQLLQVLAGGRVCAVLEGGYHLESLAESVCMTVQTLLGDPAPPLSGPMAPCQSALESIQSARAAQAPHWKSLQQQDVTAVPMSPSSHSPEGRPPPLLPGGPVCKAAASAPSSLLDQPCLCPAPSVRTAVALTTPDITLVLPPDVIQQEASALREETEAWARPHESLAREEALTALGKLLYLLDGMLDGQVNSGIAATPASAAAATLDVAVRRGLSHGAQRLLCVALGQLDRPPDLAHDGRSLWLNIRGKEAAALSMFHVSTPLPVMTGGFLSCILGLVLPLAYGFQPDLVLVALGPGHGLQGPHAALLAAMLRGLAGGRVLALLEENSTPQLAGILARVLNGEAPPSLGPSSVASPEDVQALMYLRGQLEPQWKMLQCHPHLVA
pIC50: −log10 of the molar value.
measured.endpoint: pIC50

Query: State its pIC50 for this compound: `Nc1nonc1-n1cc(C(=O)N/N=C/c2cc(Cl)cc(C(F)(F)F)c2)nn1`
Reply: < 4.00

====

# target.entity: HDAC7 (Homo sapiens)
# Sequence (Q8WUI4 1-952): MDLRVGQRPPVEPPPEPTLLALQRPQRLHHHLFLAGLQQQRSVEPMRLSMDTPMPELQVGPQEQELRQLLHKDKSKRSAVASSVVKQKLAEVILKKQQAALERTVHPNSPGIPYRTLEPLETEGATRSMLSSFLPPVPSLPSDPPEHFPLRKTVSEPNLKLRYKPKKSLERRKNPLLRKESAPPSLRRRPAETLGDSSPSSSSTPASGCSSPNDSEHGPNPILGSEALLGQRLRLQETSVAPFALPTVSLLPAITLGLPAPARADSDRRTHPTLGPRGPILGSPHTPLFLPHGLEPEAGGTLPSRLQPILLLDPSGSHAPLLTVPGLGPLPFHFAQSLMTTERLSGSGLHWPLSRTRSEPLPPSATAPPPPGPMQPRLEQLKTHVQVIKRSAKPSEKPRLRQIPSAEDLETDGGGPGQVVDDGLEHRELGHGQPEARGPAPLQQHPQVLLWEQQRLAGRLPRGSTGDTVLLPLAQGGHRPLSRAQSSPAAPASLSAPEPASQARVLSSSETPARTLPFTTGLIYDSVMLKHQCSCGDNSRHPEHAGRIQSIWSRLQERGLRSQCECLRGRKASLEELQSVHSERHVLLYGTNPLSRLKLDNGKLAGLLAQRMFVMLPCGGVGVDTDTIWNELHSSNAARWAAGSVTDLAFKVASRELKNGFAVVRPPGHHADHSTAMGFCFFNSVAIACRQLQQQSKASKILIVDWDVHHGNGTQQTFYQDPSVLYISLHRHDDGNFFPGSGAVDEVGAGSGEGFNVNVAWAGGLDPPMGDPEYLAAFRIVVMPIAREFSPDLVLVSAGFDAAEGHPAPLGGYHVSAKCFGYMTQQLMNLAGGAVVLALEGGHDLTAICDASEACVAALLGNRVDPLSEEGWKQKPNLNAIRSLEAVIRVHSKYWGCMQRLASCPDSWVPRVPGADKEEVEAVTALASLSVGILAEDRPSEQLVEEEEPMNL
measured.endpoint: IC50

Query: State its IC50 for this compound: `Nc1nonc1-n1cc(C(=O)N/N=C/c2cc(Cl)cc(C(F)(F)F)c2)nn1`
Reply: > 100 µM

====

# target.entity: full-length SIRT7 (Homo sapiens)
# Sequence (Q9NRC8 whole entry): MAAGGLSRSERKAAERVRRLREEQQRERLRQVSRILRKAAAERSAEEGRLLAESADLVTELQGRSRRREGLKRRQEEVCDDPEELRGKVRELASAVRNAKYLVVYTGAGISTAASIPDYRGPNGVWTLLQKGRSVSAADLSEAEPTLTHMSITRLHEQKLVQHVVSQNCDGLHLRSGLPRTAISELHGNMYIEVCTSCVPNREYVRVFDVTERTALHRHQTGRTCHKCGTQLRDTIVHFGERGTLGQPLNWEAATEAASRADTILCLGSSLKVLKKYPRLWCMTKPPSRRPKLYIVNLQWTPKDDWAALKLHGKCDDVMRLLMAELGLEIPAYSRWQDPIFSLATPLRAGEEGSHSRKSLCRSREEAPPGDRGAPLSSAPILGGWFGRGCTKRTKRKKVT
measured.endpoint: IC50

Query: State its IC50 for this compound: `Nc1nonc1-n1cc(C(=O)N/N=C/c2cc(Cl)cc(C(F)(F)F)c2)nn1`
Reply: > 100 µM
